- System: Enterococcus faecalis
- MEASUREMENT_NOTES: Antimicrobial activity against Enterococcus faecalis ATCC 19433 assessed as reduction in microbial growth measured after 20 hrs by CLSI based broth microdilution method
- Format: functional

{"COMPOUND": "OC(CNCCNc1nccc(C(F)(F)F)n1)COc1ccccc1 (configuration not stated)", "MIC": "> 256 µg/mL"}
{"COMPOUND": "O=[N+]([O-])c1ccc(OCC(O)CNCCNc2ncccn2)cc1 (configuration not stated)", "MIC": "> 256 µg/mL"}
{"COMPOUND": "N#Cc1ccc(OCC(O)CNCCNc2ccccc2C(F)(F)F)cc1 (configuration not stated)", "MIC": "> 256 µg/mL"}
{"COMPOUND": "OC(CNCCNc1ccc(C(F)(F)F)cn1)CNc1ccc(C(F)(F)F)cc1 (configuration not stated)", "MIC": "16 µg/mL"}
{"COMPOUND": "O=[N+]([O-])c1ccc(OCC(O)CNCCNc2ncc(C(F)(F)F)cn2)cc1 (configuration not stated)", "MIC": "> 256 µg/mL"}
{"COMPOUND": "COc1ccc(OCC(O)CNCCNc2nccc(C(F)(F)F)n2)cc1 (configuration not stated)", "MIC": "> 256 µg/mL"}
{"COMPOUND": "OC(CNCCSc1ccccc1C(F)(F)F)COc1ccc(C(F)(F)F)cc1 (configuration not stated)", "MIC": "8 µg/mL"}
